# System Tested: Epidermal growth factor receptor (Homo sapiens, UniProt P00533, 746-750DEL/C797S/T790M)
# Sequence (P00533 whole entry, looked up, stated change not applied): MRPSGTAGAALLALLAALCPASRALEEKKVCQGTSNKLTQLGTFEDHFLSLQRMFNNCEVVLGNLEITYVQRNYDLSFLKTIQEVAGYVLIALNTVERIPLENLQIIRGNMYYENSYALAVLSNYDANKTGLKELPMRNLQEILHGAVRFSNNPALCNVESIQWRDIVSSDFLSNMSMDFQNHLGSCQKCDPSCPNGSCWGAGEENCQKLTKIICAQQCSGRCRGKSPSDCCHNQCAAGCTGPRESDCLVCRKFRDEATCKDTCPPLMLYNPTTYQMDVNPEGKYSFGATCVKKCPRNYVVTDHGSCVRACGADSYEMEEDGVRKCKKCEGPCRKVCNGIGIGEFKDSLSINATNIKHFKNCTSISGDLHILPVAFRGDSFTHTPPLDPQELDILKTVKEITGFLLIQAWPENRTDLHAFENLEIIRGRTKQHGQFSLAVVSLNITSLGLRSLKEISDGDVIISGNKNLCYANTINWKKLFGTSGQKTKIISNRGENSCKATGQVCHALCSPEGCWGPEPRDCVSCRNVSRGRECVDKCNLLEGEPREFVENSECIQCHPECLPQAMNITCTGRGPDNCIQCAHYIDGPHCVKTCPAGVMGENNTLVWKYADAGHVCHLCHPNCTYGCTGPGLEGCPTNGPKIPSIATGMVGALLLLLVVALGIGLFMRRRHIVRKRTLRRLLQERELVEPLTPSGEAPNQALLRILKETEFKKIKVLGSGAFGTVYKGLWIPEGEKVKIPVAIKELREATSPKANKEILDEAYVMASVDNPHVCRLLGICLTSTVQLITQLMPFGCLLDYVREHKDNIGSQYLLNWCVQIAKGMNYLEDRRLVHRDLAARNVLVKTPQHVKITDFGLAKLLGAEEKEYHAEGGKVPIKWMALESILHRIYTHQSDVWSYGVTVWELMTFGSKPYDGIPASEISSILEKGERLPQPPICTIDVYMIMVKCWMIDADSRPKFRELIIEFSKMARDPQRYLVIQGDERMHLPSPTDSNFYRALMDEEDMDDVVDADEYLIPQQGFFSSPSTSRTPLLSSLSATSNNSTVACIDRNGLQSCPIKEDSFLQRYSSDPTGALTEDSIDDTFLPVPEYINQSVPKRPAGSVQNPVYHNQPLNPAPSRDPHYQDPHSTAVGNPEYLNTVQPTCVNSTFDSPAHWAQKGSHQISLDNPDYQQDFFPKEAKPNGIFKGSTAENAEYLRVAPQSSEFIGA
# Protocol Summary: Inhibition of recombinant human EGFR d746-750/T790M/C797S mutant using poly-Glu-Tyr (4:1) as substrate after 2 hrs in presence of [gamma-33P]-ATP by filter-binding method
Reported Property: pIC50
# reply with the number alone; pIC50 is -log10 of concentration in mol/L

Please fill in: pIC50 reported for `Oc1ccccc1-c1nc(NCc2cccnc2)c2ccccc2n1` = 6.83

Please fill in: pIC50 reported for `COC(=O)c1ccc(O)c(-c2nc(NCc3cccnc3)c3ccccc3n2)c1` = 7.34

Please fill in: pIC50 reported for `N#Cc1ccc(O)c(-c2nc(NCc3cnccn3)c3ccccc3n2)c1` = 7.77

Please fill in: pIC50 reported for `N#Cc1ccc(O)c(-c2nc(NCc3cccnc3)c3ccccc3n2)c1` = 7.64
